Biological target: β-catenin (Homo sapiens, UniProt P35222)
Test: KD50 measurement using competitive fluorescence polarization (FP) with labelled TCF4
Assay type: binding
Conditions: fluorescence polarization, β-catenin; read-out: β-Cat FP KD
pKd: −log10 of the molar value. Where a SMILES comes first, the peptide text is derived from it.
endpoint-name: pKd

CSCC[C@H](N)C(=O)N[C@@H](Cc1c[nH]c2ccccc12)C(=O)N[C@@H](Cc1ccccc1)C(=O)N[C@@H](CC(C)C)C(=O)N[C@@H](C)C(=O)N[C@@H](CO)C(=O)N[C@@H](Cc1ccccc1)C(=O)N[C@@H](Cc1c[nH]c2ccccc12)C(=O)NCC(=O)O [compound 158] (H-MWFLASFWG-OH) :: < 4.52

Give measured pKd for every item shown.
1. CC[C@H](C)[C@@H]1NC(=O)[C@H](CC(C)C)NC(=O)[C@H](CC2CCCCC2)NC(=O)[C@H](Cc2c[nH]c3ccccc23)NC(=O)[C@@H](NC(C)=O)CCCCNC(=O)C[C@@H](C(=O)O)NC(=O)[C@H](Cc2c[nH]c3ccccc23)NC(=O)[C@H](C)NC(=O)[C@H](CO)NC1=O [compound 255] (HELM PEPTIDE1{[ac].K.W.[Cha].L.I.S.A.W.D}$PEPTIDE1,PEPTIDE1,2:R3-10:R3$$$V2.0)
2. CC[C@H](C)[C@H](NC(=O)[C@H](CC(C)C)NC(=O)[C@H](Cc1ccccc1)NC(=O)[C@H](Cc1c[nH]c2ccccc12)NC(=O)[C@@H](N)CCSC)C(=O)N[C@@H](CCC(N)=O)C(=O)N[C@@H](Cc1ccccc1)C(=O)N[C@@H](Cc1c[nH]c2ccccc12)C(=O)NCC(=O)O [compound 143] (H-MWFLIQFWG-OH)

< 4.52
< 4.52

* * *

Biological target: β-catenin (Homo sapiens)
Experiment: KD50 measurement using competitive fluorescence polarization (FP) with labelled TCF4
Format: binding
Conditions: fluorescence polarization, β-catenin; read-out: β-Cat FP KD
Where a SMILES comes first, the peptide text is derived from it.
endpoint-name: Kd

CC[C@H](C)[C@H](NC(=O)[C@H](CC(C)C)NC(=O)[C@H](CC(C)C)NC(=O)[C@H](Cc1c[nH]c2ccccc12)NC(=O)[C@H](CCSC)NC(C)=O)C(=O)N[C@@H](CO)C(=O)N[C@@H](Cc1ccccc1)C(=O)N[C@@H](Cc1c[nH]c2ccccc12)C(=O)NCC(=O)O [compound 218] (Ac-MWLLISFWG-OH) :: < 400 nM
CC[C@H](C)[C@H](NC(=O)[C@H](CC(C)C)NC(=O)[C@H](Cc1ccccc1)NC(=O)[C@H](Cc1c[nH]c2ccccc12)NC(C)=O)C(=O)N[C@@H](C)C(=O)N[C@@H](Cc1ccccc1)C(=O)N[C@@H](Cc1c[nH]c2ccccc12)C(=O)NCC(=O)O [compound 196] (Ac-WFLIAFWG-OH) :: 400 to 1000 nM

We next turn to a different compound, shown below.
Given CC[C@H](C)[C@@H]1NC(=O)[C@H](CC(C)C)NC(=O)[C@H](Cc2ccccc2)NC(=O)[C@H](Cc2c[nH]c3ccccc23)NC(=O)[C@@H](N)CC(=O)NCCCC[C@@H](C(=O)O)NC(=O)[C@H](Cc2c[nH]c3ccccc23)NC(=O)[C@H](C)NC(=O)[C@H](CS)NC1=O [compound 233] (HELM PEPTIDE1{D.W.F.L.I.C.A.W.K}$PEPTIDE1,PEPTIDE1,1:R3-9:R3$$$V2.0) , respond with its Kd.
< 400 nM

* * *

Settings: % Viability non-Wnt responsive cells
Where a SMILES comes first, the peptide text is derived from it.
Assignment: determine reported viability for the given compounds.
One number for each entry, in %.

CC[C@H](C)[C@H](NC(=O)[C@H](CC(C)C)NC(=O)[C@H](C)NC(=O)[C@H](Cc1c[nH]c2ccccc12)NC(=O)[C@@H](N)CCSC)C(=O)N[C@@H](CO)C(=O)N[C@@H](Cc1ccccc1)C(=O)N[C@@H](Cc1c[nH]c2ccccc12)C(=O)NCC(=O)O [compound 156] (H-MWALISFWG-OH) :: 102
CC[C@H](C)[C@H](NC(=O)[C@H](CC(C)C)NC(=O)[C@H](Cc1ccccc1)NC(=O)[C@H](Cc1c[nH]c2ccccc12)NC(=O)[C@H](CCSC)NC(=O)[C@H](CCCNC(=N)N)NC(=O)CNC(=O)[C@@H](N)CCSC)C(=O)N[C@@H](CO)C(=O)N[C@@H](Cc1ccccc1)C(=O)N[C@@H](Cc1c[nH]c2ccccc12)C(=O)NCC(=O)O [compound 67] (H-MGRMWFLISFWG-OH) :: 101
CC[C@H](C)[C@H](NC(=O)[C@H](CC(C)C)NC(=O)[C@@H](NC(=O)[C@H](Cc1c[nH]c2ccccc12)NC(=O)[C@H](CCSC)NC(C)=O)C1CCCCC1)C(=O)N[C@@H](CO)C(=O)N[C@@H](Cc1ccccc1)C(=O)N[C@@H](Cc1c[nH]c2ccccc12)C(=O)NCC(=O)O [compound 217] (HELM PEPTIDE1{[ac].M.W.[O=C([C@@H](N[*:1])C1CCCCC1)[*:2]].L.I.S.F.W.G}$$$$V2.0) :: 87.9

Give measured viability for every item shown.
1. CC[C@H](C)[C@H](NC(=O)[C@H](CC(C)C)NC(=O)[C@H](Cc1ccccc1)NC(=O)[C@H](Cc1c[nH]c2ccccc12)NC(=O)[C@@H](NC(=O)[C@H](CCCNC(=N)N)NC(=O)[C@H](CO)NC(=O)[C@@H](N)CCSC)[C@@H](C)CC)C(=O)N[C@@H](CO)C(=O)N[C@@H](Cc1ccccc1)C(=O)N[C@@H](Cc1c[nH]c2ccccc12)C(=O)NCC(=O)O [compound 55] (H-MSRIWFLISFWG-OH)
2. CC[C@H](C)[C@H](NC(=O)[C@@H]1CCC(=O)NCCCC[C@H](N)C(=O)N[C@@H](Cc2c[nH]c3ccccc23)C(=O)N[C@@H](Cc2ccccc2)C(=O)N1)C(=O)N[C@@H](CO)C(=O)N[C@@H](Cc1ccccc1)C(=O)N[C@@H](Cc1c[nH]c2ccccc12)C(=O)NCC(=O)O [compound 208] (HELM PEPTIDE1{K.W.F.E.I.S.F.W.G}$PEPTIDE1,PEPTIDE1,1:R3-4:R3$$$V2.0)
3. CC[C@H](C)[C@H](NC(=O)[C@H](CC(C)C)NC(=O)[C@@H](NC(=O)[C@H](Cc1c[nH]c2ccccc12)NC(=O)[C@@H](N)CCSC)[C@@H](C)CC)C(=O)N[C@@H](CS)C(=O)N[C@@H](Cc1ccccc1)C(=O)N[C@@H](Cc1c[nH]c2ccccc12)C(=O)NCC(=O)O [compound 116] (H-MWILICFWG-OH)

1: 101; 2: 93.4; 3: 123

* * *

Biological target: β-catenin (Homo sapiens, UniProt P35222)
Sequence (P35222 1-781): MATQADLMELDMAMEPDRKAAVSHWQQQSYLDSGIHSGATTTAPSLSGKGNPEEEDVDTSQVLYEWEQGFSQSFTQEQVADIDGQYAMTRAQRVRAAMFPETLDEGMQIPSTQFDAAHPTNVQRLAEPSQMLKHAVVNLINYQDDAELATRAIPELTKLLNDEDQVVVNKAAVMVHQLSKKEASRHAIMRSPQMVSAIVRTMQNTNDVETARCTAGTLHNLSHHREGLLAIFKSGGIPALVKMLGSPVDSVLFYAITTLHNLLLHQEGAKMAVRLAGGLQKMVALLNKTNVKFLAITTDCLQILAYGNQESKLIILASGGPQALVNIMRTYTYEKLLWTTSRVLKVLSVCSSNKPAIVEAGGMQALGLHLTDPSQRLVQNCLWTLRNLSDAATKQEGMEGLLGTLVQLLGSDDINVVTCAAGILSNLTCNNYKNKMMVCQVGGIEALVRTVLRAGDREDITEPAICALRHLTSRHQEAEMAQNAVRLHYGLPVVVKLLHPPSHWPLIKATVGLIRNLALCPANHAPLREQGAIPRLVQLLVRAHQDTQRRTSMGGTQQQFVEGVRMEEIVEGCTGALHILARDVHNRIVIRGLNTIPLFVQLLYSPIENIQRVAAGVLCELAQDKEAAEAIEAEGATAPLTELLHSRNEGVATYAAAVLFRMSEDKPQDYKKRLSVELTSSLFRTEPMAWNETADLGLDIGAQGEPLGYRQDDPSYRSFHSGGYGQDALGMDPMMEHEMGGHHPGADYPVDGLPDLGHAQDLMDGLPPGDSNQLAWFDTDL
Experiment: KD50 measurement using competitive fluorescence polarization (FP) with labelled TCF4
Format: binding
Conditions: fluorescence polarization, β-catenin; read-out: β-Cat FP KD
pKd: −log10 of the molar value. Where a SMILES comes first, the peptide text is derived from it.
Assignment: determine reported pKd for the given compounds.

CC[C@H](C)[C@@H]1NC(=O)[C@H](CC(C)C)NC(=O)[C@H](Cc2ccccc2)NC(=O)[C@H](Cc2c[nH]c3ccccc23)NC(=O)[C@@H](NC(C)=O)CCCCNC(=O)CC[C@@H](C(=O)O)NC(=O)[C@H](Cc2c[nH]c3ccccc23)NC(=O)[C@H](C)NC(=O)[C@H](CO)NC1=O [compound 187] (HELM PEPTIDE1{[ac].K.W.F.L.I.S.A.W.E}$PEPTIDE1,PEPTIDE1,2:R3-10:R3$$$V2.0) :: 5.00 to 6.00

We next turn to a different compound, shown below.
Given CC[C@H](C)[C@H](NC(=O)[C@H](CC(C)C)NC(=O)[C@H](Cc1ccccc1)NC(=O)[C@H](Cc1c[nH]c2ccccc12)NC(=O)[C@@H](NC(=O)[C@H](CCCNC(=N)N)NC(=O)[C@H](CO)NC(=O)[C@@H](N)CCSC)[C@@H](C)CC)C(=O)N[C@@H](CO)C(=O)N[C@@H](Cc1ccccc1)C(=O)N[C@@H](Cc1c[nH]c2ccccc12)C(=O)NCC(=O)O [compound 55] (H-MSRIWFLISFWG-OH) , respond with its pKd.
< 4.52

Ref: patent US12441768B2
